src = patent US5532240A

The reader will find log10 of Ki measurements below, all made with serotonin 1A (5-HT1A) receptor (Rattus norvegicus, UniProt P19327).
Sequence (P19327 whole entry): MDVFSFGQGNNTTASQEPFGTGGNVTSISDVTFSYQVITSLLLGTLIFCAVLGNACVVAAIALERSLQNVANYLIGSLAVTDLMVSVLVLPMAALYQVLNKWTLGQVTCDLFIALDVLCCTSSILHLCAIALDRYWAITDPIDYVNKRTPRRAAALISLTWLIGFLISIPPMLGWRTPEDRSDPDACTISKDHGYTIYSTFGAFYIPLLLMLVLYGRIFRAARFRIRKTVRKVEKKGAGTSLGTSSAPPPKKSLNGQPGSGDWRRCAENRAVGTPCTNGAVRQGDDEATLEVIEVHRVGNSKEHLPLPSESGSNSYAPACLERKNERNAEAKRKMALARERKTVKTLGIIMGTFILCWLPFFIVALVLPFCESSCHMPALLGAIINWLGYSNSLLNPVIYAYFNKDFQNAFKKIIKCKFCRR
Form field - Quantity: Ki; Unit: nM; Scale: log10

Consider the reported log10 of Ki for these molecules:
INSERT INTO results (molecule, result_type, endpoint_result) VALUES
  ('Cc1sc2c(c1CCN1CCC(c3noc4cc(F)ccc34)CC1)NC(=O)CCC2 [Example 22]', 'log10 of Ki', 1.18),
  ('CC(=O)N1CCc2c(sc(C)c2CCN2CCC(c3csc4cc(F)ccc34)CC2)C1 [Example 53]', 'log10 of Ki', 0.57),
  ('CCc1c(CCN2CCC(c3coc4ccc(C)cc34)CC2)sc2c1CCN(C(C)=O)C2 [Example 145]', 'log10 of Ki', -0.85),
  ('CC(=O)N1CCc2c(sc(C)c2CCN2CCC(c3noc4cc(F)ccc34)CC2)C1 [Example 24]', 'log10 of Ki', 1.51),
  ('CCc1sc2c(c1CCN1CCC(c3noc4cc(F)ccc34)CC1)CCN(C(C)=O)C2 [Example 32]', 'log10 of Ki', 1.73);

Exercise: Please give the measured log10 of Ki for this molecule: CCc1c(CCN2CCC(c3nsc4cc(F)ccc34)CC2)sc2c1CCN(C(C)=O)C2 [Example 86]
Solution: -0.23

Exercise: Please give the measured log10 of Ki for this molecule: Cc1ccc2occ(C3CCN(CCc4cc5c(s4)CCCC(=O)N5)CC3)c2c1 [Example 148]
Solution: -0.62

Exercise: Please give the measured log10 of Ki for this molecule: O=C1CCCc2sc(CCN3CCC(c4coc5cc(F)ccc45)CC3)cc2N1 [Example 147]
Solution: -0.49
